Experiment: label from the status in PepcDB records

[
  {
    "SEQUENCE_CHAIN": "MQSILKPITNLFTMIFQAIHGFVASLDIFGVGAGYVITIFLLTLLVRLILLPLNIKQTRSQQKMQEIQPEIAKLQKKYKNNPEKAQQEMMKLYKENNVNPMSGCLPLLIQMPILFALYYVFTGLTELQGVSFLWLGDLWAPDRTFILPILSAATTYLSSLLMTKFTQSQAGGAPGGMNMNTMNIVMAGMMGVMSIQFPSMLVLYWVIGNLIQMVQTYFIVVLPSRKRAKEKEQYKDIK",
    "protein production": "failed"
  },
  {
    "SEQUENCE_CHAIN": "MALTPDQMPDRAEVVFTCNGKAVGKMRNELDVAMVKPFEERFALATDEGAFHGGDASAPPPLALFIAGLTGCVMTQIRAFAKRLKVTVTDLDVECRVVWDWAKAGPVYETGPKSFEIDIILHSPDPIEAQQALIEAAKKGCFLEQTLGQANTIRHRLKVGDTFIDA",
    "protein production": "not failed"
  },
  {
    "SEQUENCE_CHAIN": "MCVRHDAGHGCLRAREGRRRPSMAPPCRKKINKPVLVRVDEFCSAAVQAGNPIVPSTLETTHWATRRRPKEAGMASKMFKTVGRVAAGVAALSIAAAATTASADSRHHRHKRDKGGDVAAAAITAGVIGLVIGAAIADDGHRDDRYYDRRYAPPPPPPPTRYGHGYGYGYDYDYAPRPYYGDRECWTTREYNRRSGSYYERTVCR",
    "protein production": "failed"
  },
  {
    "SEQUENCE_CHAIN": "MKKNKIGGSQSMFNKVWFRTGIFFIMLFILIKLFMEVHEVFAPIATIIGSVFLPFLISGFLFYICLPFQNILEKWGFPRWASITTIFIGLIVIIAIVVSFIAPIIISNINNLIKQTPSLQKEAEQLINFSLRQMDKLPDDVTHRINKAVKSMGDGATSILSNSVSYITSFISTVFLLIMVPFFLIYMLKDHEKFIPAIGKFFKGERKVFVVDLLKDLNFTLKSYIQGQVTVSIILGIILYIGYTIIGLPYTPLLVLFAGVANLIPFLGPWLSFAPAAILGIIDGPSTFIWVCVVTLIAQQLEGNVITPNVMGKSLSIHPLTIIVVILAAGDLGGFTLILVAVPLYAVIKTLVSNIFKYRQRIVDKANSNVKD",
    "protein production": "failed"
  },
  {
    "SEQUENCE_CHAIN": "MSGDILNDIVAACLELERKASSVFKMFAAHAGSDEARRFWETVADETRHHSAVYERLQERGGRENLPIIIYKPAETLEELEMIGKSIDEQVERYTEAPSSEAACLLGFRLQLYLLHPAFASLCRLTRDASGEDLPDIGYGRYLRRFIDGIGSCGLATAETELLGEALFRLWNEARQLAAQSHFDALTGVMTRAGFFKTVGSLAYAAQRSGSNVGIMLIDLDYFKLVGDNYGHQTGDRILQLVAETITSHLRRSDVVGRYDGDEFVVYLSPVEPASLRTVAENLRRSIEEESARMVPVTASIGVAQGILGTDVDGGIEELVRLADECLMQAKYTGKNKVVVK",
    "protein production": "not failed"
  },
  {
    "SEQUENCE_CHAIN": "MLWRPVGHGVEALYLATPLGRRVGYGVYVYRYRGLLVDTGPPKARPFAPEAALLTHAHEDHAGGAFRLGLPVYGSALTAALVAAPKPLRLYRRLVWGSPRPAQVEVAERVGPLHLLPTPGHAPDHVALYDPEAGLFFGGDLFLGVRASLATPGFDLQALLQSLRRALALKPRAFYCAHAGPLQAPLEALQAKLDFLEGKREEALRLKARGLTPKEALRRLFGGESPLALLSGGEMSRLAFVEALMMEP",
    "protein production": "failed"
  }
]
